testSystem: WT ULK2 (Homo sapiens (Human))
Sequence (Q8IYT8 whole entry): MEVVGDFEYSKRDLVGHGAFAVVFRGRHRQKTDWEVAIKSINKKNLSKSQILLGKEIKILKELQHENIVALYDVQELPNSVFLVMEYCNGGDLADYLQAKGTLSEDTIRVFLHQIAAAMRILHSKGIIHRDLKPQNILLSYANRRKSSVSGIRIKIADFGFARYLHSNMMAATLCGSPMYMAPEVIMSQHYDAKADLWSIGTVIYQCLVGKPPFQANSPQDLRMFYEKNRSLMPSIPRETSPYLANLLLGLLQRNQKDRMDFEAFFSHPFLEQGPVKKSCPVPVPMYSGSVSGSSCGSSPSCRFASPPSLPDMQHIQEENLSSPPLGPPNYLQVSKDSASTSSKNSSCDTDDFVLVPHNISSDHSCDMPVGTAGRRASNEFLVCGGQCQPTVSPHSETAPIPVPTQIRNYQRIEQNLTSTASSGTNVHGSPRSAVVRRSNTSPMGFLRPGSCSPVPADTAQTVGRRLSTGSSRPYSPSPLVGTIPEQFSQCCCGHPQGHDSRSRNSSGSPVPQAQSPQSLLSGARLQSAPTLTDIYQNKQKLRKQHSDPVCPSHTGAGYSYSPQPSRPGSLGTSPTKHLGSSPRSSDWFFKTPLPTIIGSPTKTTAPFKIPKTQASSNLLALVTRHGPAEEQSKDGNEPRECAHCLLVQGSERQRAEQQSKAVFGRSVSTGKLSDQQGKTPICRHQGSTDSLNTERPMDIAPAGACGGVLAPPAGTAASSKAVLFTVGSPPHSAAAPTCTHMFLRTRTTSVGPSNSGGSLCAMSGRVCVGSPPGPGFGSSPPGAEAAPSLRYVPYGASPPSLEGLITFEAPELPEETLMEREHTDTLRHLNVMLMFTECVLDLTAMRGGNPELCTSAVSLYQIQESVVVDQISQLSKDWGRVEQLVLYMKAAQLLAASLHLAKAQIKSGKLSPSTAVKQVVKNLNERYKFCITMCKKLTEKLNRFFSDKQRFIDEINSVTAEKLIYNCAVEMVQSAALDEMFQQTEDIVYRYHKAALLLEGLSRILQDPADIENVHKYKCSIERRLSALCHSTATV
assay: in vitro kinase assay, WT ULK2, MBP substrate, radiolabeled ATP
Assay type: biochemical
runParameters: 10-μM MBP, 30-μM γ-32P-ATP; triplicate, ten-dose, 3-fold serial dilution from 1 μM
Protocol: WT ULK1 (left) and WT ULK2 (right) were assayed using 10-μM MBP in the presence of 30-μM radiolabeled γ-^32P-ATP. To further examine how ULK1 regulates autophagy, we sought to identify small molecule ATP competitive kinase inhibitors of ULK1. Screening a library of chemical compounds for inhibitors of ULK1 kinase activity in vitro, we identified a lead compound that was further elaborated through a medicinal chemistry effort to produce compound 14. […]
parameter: IC50 (µM)
State just the number; it will be interpreted in µM.

Ask | Returns the measured IC50 for the input compound. Input: CNC(=O)c1ccccc1Nc1nc(Nc2cc(OC)c(OC)c(OC)c2)ncc1Br [compound 14]
Reply | 0.711

* * *

Measured IC50 on ULK1 (Homo sapiens (Human), UniProt O75385) follows.
Sequence (O75385 whole entry, species assumed): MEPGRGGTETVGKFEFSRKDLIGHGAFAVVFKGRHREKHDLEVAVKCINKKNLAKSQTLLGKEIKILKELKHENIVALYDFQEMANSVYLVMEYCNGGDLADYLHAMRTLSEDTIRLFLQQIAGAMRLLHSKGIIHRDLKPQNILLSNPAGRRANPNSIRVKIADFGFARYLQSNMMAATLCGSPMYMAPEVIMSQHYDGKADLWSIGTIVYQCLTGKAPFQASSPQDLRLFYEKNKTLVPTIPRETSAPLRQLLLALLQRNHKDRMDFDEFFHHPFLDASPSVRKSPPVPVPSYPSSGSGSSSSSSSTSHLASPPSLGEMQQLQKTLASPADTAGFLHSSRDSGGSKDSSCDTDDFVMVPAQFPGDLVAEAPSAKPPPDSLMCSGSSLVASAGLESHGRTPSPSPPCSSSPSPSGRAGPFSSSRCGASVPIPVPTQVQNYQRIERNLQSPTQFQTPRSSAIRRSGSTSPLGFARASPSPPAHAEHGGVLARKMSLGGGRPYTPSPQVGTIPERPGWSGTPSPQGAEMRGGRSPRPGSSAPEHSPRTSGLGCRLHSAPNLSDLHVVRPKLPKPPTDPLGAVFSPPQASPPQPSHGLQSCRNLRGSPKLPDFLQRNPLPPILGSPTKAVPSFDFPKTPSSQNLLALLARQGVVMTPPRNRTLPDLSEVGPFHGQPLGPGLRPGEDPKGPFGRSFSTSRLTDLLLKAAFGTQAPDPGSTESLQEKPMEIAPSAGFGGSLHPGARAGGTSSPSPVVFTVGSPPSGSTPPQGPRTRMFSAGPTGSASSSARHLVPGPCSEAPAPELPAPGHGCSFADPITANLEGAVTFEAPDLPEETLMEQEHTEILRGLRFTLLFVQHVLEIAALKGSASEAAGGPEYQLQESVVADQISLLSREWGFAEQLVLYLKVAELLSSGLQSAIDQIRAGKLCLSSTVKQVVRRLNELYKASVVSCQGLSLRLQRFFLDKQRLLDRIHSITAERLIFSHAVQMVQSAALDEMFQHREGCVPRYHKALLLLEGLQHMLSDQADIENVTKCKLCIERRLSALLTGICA

Consider the following illustrative entries.
* O=C1CCc2cc(Nc3nc(NC4Cc5ccccc5C4)ncc3C(F)(F)F)ccc2N1 [130b] | > 2 µM
* COc1ccc(Nc2nc(Nc3cc(OC)c(OC)c(OC)c3)ncc2Cl)cn1 | < 0.2 µM
* O=C1CCc2cc(Nc3nc(NC4CCC4)ncc3C(F)(F)F)ccc2N1 [150b] | < 0.2 µM

Ask | GET /values?readout=IC50&item= FC(F)(F)c1cnc(Nc2ccc3c(c2)OCO3)nc1N1CCCC1 [164b]
Reply | 0.2 to 2 µM

Ask | Consider next the compound CSc1ccccc1Nc1ncc(C(F)(F)F)c(Nc2ccccc2SC)n1 [116b] in the same way.
Reply | > 2 µM

Ask | Please do the same for O=C1CCc2cc(Nc3nc(OC4Cc5ccccc5C4)ncc3C(F)(F)F)ccc2N1 [180b] as well.
Reply | > 2 µM

Ask | Another compound to look at: Cc1ccc(Nc2nc(Nc3ccc4c(c3)CCC(=O)N4)ncc2C(F)(F)F)cc1C
Reply | < 0.2 µM

Ask | And then CS(=O)(=O)c1cccc(CNc2nc(Nc3ccc4c(c3)CCC(=O)N4)ncc2C(F)(F)F)c1 , what is it?
Reply | 0.2 to 2 µM

Ask | Now try CNC(=O)c1ccccc1Oc1nc(Nc2ccccc2)ncc1C(F)(F)F .
Reply | > 2 µM

* * *

testSystem: ULK1 (Homo sapiens (Human))
parameter: IC50

Previously resolved entries follow.
• CNC(=O)c1ccccc1Oc1nc(Nc2cc(OC)ccc2OC)ncc1C(F)(F)F [109a] = > 2000 nM
• O=C1CCc2cc(Nc3ncc(C(F)(F)F)c(CCc4ccccc4)n3)ccc2N1 [compound 66] = 200 to 2000 nM
• CNC(=O)c1ccccc1Oc1nc(Nc2ccccc2SC)ncc1C(F)(F)F [116a] = > 2000 nM
• FC(F)(F)c1cnc(NC2Cc3ccccc3C2)nc1Nc1ccc2c(c1)OCO2 [163a] = > 2000 nM

Below: the item to evaluate.
Ask | Give its IC50 value. Item: CNC(=O)c1ccccc1Nc1nc(Nc2cccc(OC)c2)ncc1Cl [compound 44]
Reply | < 200 nM

* * *

Here, each record is paired with measured IC50 data.
testSystem: UniProtKB O75385
assay: ULK1 inhibition assay (Table 1)
Type: biochemical
runParameters: * = tested as a mixture of regioisomers

Answered cases to consult:
- O=C1CCc2cc(Nc3nc(Nc4ccc5c(c4)OC(F)(F)O5)ncc3C(F)(F)F)ccc2N1 [178b]: < 200 nM
- O=C1CCc2cc(Nc3ncc(C(F)(F)F)c(Nc4ccccc4)n3)ccc2N1: < 200 nM
- COCCNc1nc(Nc2ccc3c(c2)CCC(=O)N3)ncc1C(F)(F)F [151a]: < 200 nM
- CNC(=O)c1cccc(Oc2nc(Nc3ccc4c(c3)CCC(=O)N4)ncc2C(F)(F)F)c1: 200 to 2000 nM
- O=C1CCc2cc(Nc3ncc(C(F)(F)F)c(Nc4ccccc4OC(F)F)n3)ccc2N1 [120a]: < 200 nM

Ask | Lab note: need IC50 for COc1cc(Nc2nc(-n3nnc4ccccc43)ncc2Br)cc(O)c1OC [Example 331b] on UniProtKB O75385, anyone have it?
Reply | 200 to 2000 nM

Ask | For COc1ccc(Nc2nc(Nc3ccc4[nH]ccc4c3)ncc2Br)cn1 then?
Reply | < 200 nM

Ask | Lookup CNC(=O)c1ccccc1Oc1nc(Nc2cccc(F)c2F)ncc1C(F)(F)F
Reply | > 2000 nM

Ask | Thanks! And FC(F)(F)c1cnc(Nc2ccc3c(c2)OCO3)nc1NCC1CC1 [167b] ?
Reply | < 200 nM

Ask | Query Nc1ncc(C(F)(F)F)c(Nc2ccc3c(c2)OCO3)n1 [165a] next
Reply | 200 to 2000 nM

Ask | Also COc1cc(N2CCOCC2)ccc1Nc1ncc(C(F)(F)F)c(NCc2cccc(S(C)(=O)=O)c2)n1 , if possible.
Reply | > 2000 nM

Ask | Thanks! And O=C1CCc2cc(Nc3ncc(C(F)(F)F)c(Nc4nccs4)n3)ccc2N1 ?
Reply | > 2000 nM

Ask | For O=C1CCc2cc(Nc3nc(Nc4ccccc4N4CCOCC4)ncc3C(F)(F)F)ccc2N1 [118b] then?
Reply | > 2000 nM

* * *

Let's go through some IC50 measurements on ULK1 (Homo sapiens (Human), UniProt O75385) together.

Ask | State the recorded IC50 for this entry: CNC(=O)c1ccccc1Nc1nc(Nc2cc(OC)c(OC)c(OC)c2)ncc1CCc1ccccc1
Reply | 200 to 2000 nM

Ask | Same again, this time with FC(F)(F)c1cnc(NCC2CC2)nc1Nc1ccc2c(c1)OCO2 [167a]
Reply | < 200 nM

Ask | What do you have for FC(F)(F)c1cnc(N2CCCC2)nc1Nc1ccc2c(c1)OCO2 [164a] ?
Reply | > 2000 nM

Ask | Param item: COc1ccc(Nc2ncc(C(F)(F)F)c(O)n2)cc1 [105b]
Reply | > 2000 nM

Ask | What about this compound? CNC(=O)c1ccccc1Nc1nc(Nc2cc(N3CCOCC3)cc(N3CCOCC3)c2)ncc1Cl
Reply | 200 to 2000 nM

Ask | One more compound: CS(=O)(=O)c1cccc(CNc2nc(Nc3ccc4c(c3)CC(=O)N4)ncc2C(F)(F)F)c1
Reply | 200 to 2000 nM

Ask | Now give it for COc1cccc(Nc2ncc(C(F)(F)F)c(O)n2)c1OC [115b] too.
Reply | > 2000 nM

Ask | Also check FC(F)Oc1ccccc1Nc1ncc(C(F)(F)F)c(Nc2ccccc2OC(F)F)n1 [120b]
Reply | 200 to 2000 nM

Ask | Can you check O=C1CCc2cc(Nc3ncc(C(F)(F)F)c(NC4CC4)n3)ccc2N1 [131a] next?
Reply | < 200 nM

* * *

testSystem: WT ULK1 (Homo sapiens (Human), UniProt O75385)
Sequence (O75385 whole entry): as the sequence (O75385 whole entry, species assumed) above
assay: in vitro kinase assay, WT ULK1, MBP substrate, radiolabeled ATP
Assay type: biochemical
runParameters: 10-μM MBP, 30-μM γ-32P-ATP; triplicate, ten-dose, 3-fold serial dilution from 1 μM
parameter: IC50
Show the value, then the unit it is measured in.

Ask | For the molecule CNC(=O)c1ccccc1Nc1nc(Nc2cc(OC)c(OC)c(OC)c2)ncc1Br , what IC50 is on record?
Reply | 0.107 µM

* * *

testSystem: ULK1 (Homo sapiens (Human))
assay: ULK1 inhibition assay (Table 1)
Format: biochemical
runParameters: * = tested as a mixture of regioisomers
parameter: IC50

Example entries and their recorded answers appear below.
- FC(F)(F)c1cnc(Nc2cnc3[nH]ccc3c2)nc1NC1CCC1 [161a]: < 200 nM
- CNC(=O)c1ccccc1Nc1nc(Nc2cc(OC)c(OC)c(OC)c2)ncc1/C=C/c1ccccc1: < 200 nM
- COc1nc(Nc2cccc(C(F)(F)F)c2F)ncc1Br: 200 to 2000 nM
- COc1cc(N2CCOCC2)ccc1Nc1ncc(C(F)(F)F)c(Nc2ccccn2)n1: 200 to 2000 nM
- CNC(=O)c1ccccc1Oc1nc(Nc2ccc3c(c2)CCC(=O)N3)ncc1C(F)(F)F: 200 to 2000 nM
- FC(F)(F)c1cnc(NC2CCC2)nc1Nc1ccc2c(c1)OCO2 [168a]: < 200 nM
- FC(F)(F)c1cnc(NC2CC2)nc1Nc1cnc2[nH]ccc2c1 [152b]: 200 to 2000 nM
- O=C1CCc2cc(Nc3nc(NC4CCCC4)ncc3C(F)(F)F)ccc2N1 [160b]: 200 to 2000 nM

Ask | ULK1 (Homo sapiens (Human)) / IC50 / COc1ccc(C)c(Nc2ncc(Cl)c(Nc3cccc(CC#N)c3)n2)c1 : value?
Reply | > 2000 nM

Ask | Same question, CNC(=O)c1cccc(Nc2nc(Nc3ccc4c(c3)CCC(=O)N4)ncc2C(F)(F)F)c1 this time
Reply | < 200 nM

Ask | Item: O=C1CCc2cc(Nc3ncc(C(F)(F)F)c(Nc4cccc(OCc5ccccc5)c4)n3)ccc2N1
Reply | 200 to 2000 nM

Ask | Query FC(F)(F)c1cnc(NC2CC2)nc1Nc1ccc2c(c1)OCCO2 [158b] next
Reply | < 200 nM

Ask | Here is the next compound: COc1ccc(C)c(Nc2ncc(Cl)c(NCc3cccc(S(C)(=O)=O)c3)n2)c1
Reply | > 2000 nM

Ask | Also O=C1CCc2cc(Nc3ncc(C(F)(F)F)c(OCc4ccccc4)n3)ccc2N1 , if possible.
Reply | < 200 nM

Ask | And O=C1CCc2cc(Nc3ncc(Br)c(NC4CC4)n3)ccc2N1 ?
Reply | < 200 nM

Ask | Param item: FC(F)(F)c1cnc(Nc2ccc3c(c2)OCO3)nc1Nc1ccc2c(c1)OCO2 [124c]
Reply | < 200 nM

Ask | Next: FC(F)(F)c1cnc(NC2CCC2)nc1NC1CCC1 [168c]
Reply | 200 to 2000 nM

Ask | Another: CNC(=O)c1ccccc1Nc1nc(Nc2ccc3c(c2)CCC(=O)N3)ncc1C(F)(F)F
Reply | < 200 nM

Ask | Then what about the compound Oc1nc(Nc2ccc(Cl)c(Cl)c2)ncc1C(F)(F)F [108b] ?
Reply | > 2000 nM
